CREA values by entry
assay: Cynomolgus monkey tolerability, kidney and liver function markers (Example 34)
conditions.used: cynomolgus monkeys, 35 mg/kg subcutaneously, day 44
Numeric answer only, unit mg/dL assumed.

[[record]]
substance = "1198872 (TGTATGTCAGAAGAGT; chemically modified gapmer, further chemistry not given here) [compound 1198872]"
value_units = "mg/dL"
result = 0.9

[[record]]
substance = "1198831 (CACTTTTACATTAGGA; chemically modified gapmer, further chemistry not given here) [compound 1198831]"
value_units = "mg/dL"
result = 0.7

[[record]]
substance = "1198440 (AAGTGTATGTCAGAAG; cEt, 2'-MOE, 5-methylcytosine, phosphorothioate modifications, further chemistry not given here) [compound 1198440]"
value_units = "mg/dL"
result = 0.9

[[record]]
substance = "1198728 (TATTAGAGTATGTGGC; modified gapmer, further chemistry not given here) [compound 1198728]"
value_units = "mg/dL"
result = 0.9


Field: next substance
**Query** Please give the measured CREA for this substance: 1198439 (AGTGTATGTCAGAAGA; sugar, 5-methylcytosine, phosphorothioate modifications, further chemistry not given here) [compound 1198439]
**Result** 0.9

====

Tested on: Yap1 mRNA
assay: Dose-dependent inhibition of human Yap1 in A-431 cells (Example 7, 10,000 cells per well, RTS36584)
Format: cell-based
conditions.used: Table 58, 62.5 nM, free uptake, A-431 cells 10,000 cells per well, 48 hours
Procedure: Modified oligonucleotides described in the studies above were tested at various doses in A-431 cells. […] After approximately 48 hours, Yap1 mRNA levels were measured as previously described using the Human Yap1 primer-probe set RTS36584. Yap1 mRNA levels were normalized to total RNA content, as measured by RIBOGREEN®. […] IC50s were calculated using a linear regression on a log/linear plot of the data in excel.
Strand notation (5' to 3'): a small letter for the sugar, then the base; units joined by * are phosphorothioate-linked, units joined directly phosphodiester-linked; [ ] holds rarer units or linkages, { } end groups; capitals alone tell only the bases. k = constrained ethyl (cEt); [5mC] = 5-methylcytosine; d = 2'-deoxy (DNA)
Reported values of Yap1 mRNA, % UTC for individual entries
# unit: % UTC | format: bare number

[[record]]
substance = "958727 (kA*kT*k[5mC]*dT*dG*dT*d[5mC]*dA*dG*dT*dT*dA*dT*k[5mC]*k[5mC]*kT; antisense) [compound 958727]"
result = 42

[[record]]
substance = "958497 (kA*kT*kA*dT*dG*dG*dA*dA*dA*dT*dT*dG*dT*k[5mC]*kT*k[5mC]) [compound 958497]"
result = 35

[[record]]
substance = "958622 (kG*kA*kT*dA*dT*dT*d[5mC]*d[5mC]*dG*d[5mC]*dA*dT*dT*kG*k[5mC]*k[5mC]; antisense) [compound 958622]"
result = 50


**Query** Item 958567 (kT*k[5mC]*kA*dA*d[5mC]*d[5mC]*dT*dA*dT*dG*dA*dA*d[5mC]*kT*kA*kT; antisense) [compound 958567] has what recorded Yap1 mRNA, % UTC?
**Result** 80

**Query** What value of measured Yap1 mRNA, % UTC is listed for 958577 (kT*k[5mC]*kT*dG*dT*dG*dG*d[5mC]*dT*dA*d[5mC]*dT*dG*kG*k[5mC]*kA; antisense) [compound 958577] ?
**Result** 51

**Query** Look at this substance and give its reported Yap1 mRNA, % UTC. 958757 (kG*kT*kG*dA*dT*d[5mC]*dT*dG*d[5mC]*dA*d[5mC]*dA*dT*kT*kG*kT; antisense) [compound 958757]
**Result** 89

**Query** Name the reported Yap1 mRNA, % UTC value associated with the substance 715483 (k[5mC]*kT*k[5mC]*dT*dT*dT*dG*dG*dA*dA*dA*d[5mC]*d[5mC]*kA*kT*kT) [compound 715483]
**Result** 44

Cited source for all entries: patent US11214803B2
